Tested on: Giardia lamblia (Portland 1 strain)
assay notes: Inhibition of Giardia lamblia culture (cell number by hemacytometer)
Assay type: cell-based
measurement context: Giardia duodenalis; 48 hrs at 37°C; 5 x 10^4 organisms per ml; read-out: ID50 (the source's name)
test readout: IC50

Data request: Suppose we examine the compound CCSC[C@H]1OC(O)[C@H](O)[C@@H]1O (stereo partly shown) [ETR, 5-ethylthio-5-deoxyribose] ; what IC50 value has been reported?
Data returned: ~450 µM
